Known IC50 of a selection of molecules
biological target: AII receptor; experiment: Angiotensin II receptor binding (displacement of 3H-AII from rat adrenal cortical microsomes); details: 50% displacement of specifically bound 3H-AII (2 nM), 1 hour, room temperature
Reply numerically in µM, unit not repeated.

Use these answered entries as a reference point.
CCCc1ccc(C(=O)OCC)n1Cc1ccc(-c2ccccc2-c2nnn[nH]2)cc1 1.6
CCCc1cc(C=O)nn1Cc1ccc(-c2ccccc2C(=O)O)cc1 4.1

Now look at this one.
Input line: // returns reported IC50 for input "CCCCc1cc(COC)n(Cc2ccc(-c3ccccc3C(=O)O)cc2)n1"
Output line: 7.3
